- Study target: human mGluR5 (Homo sapiens, UniProt P41594)
- Construct: expressed in transfected cells
- Sequence (P41594 21-1212): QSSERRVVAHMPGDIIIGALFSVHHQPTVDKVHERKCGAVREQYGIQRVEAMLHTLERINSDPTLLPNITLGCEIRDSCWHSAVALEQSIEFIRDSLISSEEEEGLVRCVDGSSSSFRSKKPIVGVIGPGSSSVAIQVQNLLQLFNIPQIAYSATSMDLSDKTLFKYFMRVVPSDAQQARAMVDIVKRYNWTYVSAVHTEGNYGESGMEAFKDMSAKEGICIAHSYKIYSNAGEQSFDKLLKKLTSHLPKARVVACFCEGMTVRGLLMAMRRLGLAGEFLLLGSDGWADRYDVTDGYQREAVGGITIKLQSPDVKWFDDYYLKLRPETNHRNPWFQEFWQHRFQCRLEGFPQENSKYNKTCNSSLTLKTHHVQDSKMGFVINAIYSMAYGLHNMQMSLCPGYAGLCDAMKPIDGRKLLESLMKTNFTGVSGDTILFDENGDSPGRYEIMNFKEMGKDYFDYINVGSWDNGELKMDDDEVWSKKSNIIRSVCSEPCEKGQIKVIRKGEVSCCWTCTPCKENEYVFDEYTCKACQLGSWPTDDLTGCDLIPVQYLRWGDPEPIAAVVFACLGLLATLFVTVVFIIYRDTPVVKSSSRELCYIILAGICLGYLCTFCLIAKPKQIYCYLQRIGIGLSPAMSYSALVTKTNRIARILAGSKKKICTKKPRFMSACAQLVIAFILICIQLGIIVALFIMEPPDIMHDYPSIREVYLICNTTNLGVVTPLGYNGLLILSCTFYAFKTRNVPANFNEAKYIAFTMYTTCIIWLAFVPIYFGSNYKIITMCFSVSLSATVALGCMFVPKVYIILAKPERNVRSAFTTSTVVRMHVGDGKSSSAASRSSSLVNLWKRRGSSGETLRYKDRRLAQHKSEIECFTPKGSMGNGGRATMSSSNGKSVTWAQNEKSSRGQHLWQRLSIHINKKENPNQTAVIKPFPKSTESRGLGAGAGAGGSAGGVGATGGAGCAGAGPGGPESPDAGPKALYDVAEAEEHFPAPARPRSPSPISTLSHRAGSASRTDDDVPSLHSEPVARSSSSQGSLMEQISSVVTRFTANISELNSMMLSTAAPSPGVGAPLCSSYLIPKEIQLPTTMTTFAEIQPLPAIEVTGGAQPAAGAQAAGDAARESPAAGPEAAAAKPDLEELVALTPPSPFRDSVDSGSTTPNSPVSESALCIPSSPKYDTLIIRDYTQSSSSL
- Measurement description: Experiment for receptor function of mGluR5 (Ca2+-dependent fluorescence, FLIPR, CHO-K1 cells stably expressing human mGluR5)
- Format: cell-based
- Reported conditions: L-glutamic acid 10 μM, Fluo-4 fluorescence
Structures can show the parent of a compound that is named as a salt.
Readout kind: IC50 (nM)

[
  {
    "Molecule": "Fc1cccnc1COc1cc(-c2cncnc2)c2c(n1)CCCC2 [Example 147]",
    "Meas value": 19.7
  },
  {
    "Molecule": "COc1cncc(-c2cc(OCc3ccccn3)nc3c2CCCC3)c1 [Example 102, hydrochloride]",
    "Meas value": 51.2
  },
  {
    "Molecule": "c1ccc(COc2cc(-c3cnccn3)c3c(n2)CCCCC3)nc1 [Example 234, hydrochloride]",
    "Meas value": 41.4
  },
  {
    "Molecule": "N#Cc1cccc(COc2cc(-c3cncc(CO)c3)c3c(n2)CCC3)c1 [Example 253]",
    "Meas value": 80
  },
  {
    "Molecule": "Cc1ncc(-c2cc(OCc3ccccn3)nc3c2CCCC3)cn1 [Example 168]",
    "Meas value": 153
  }
]

1 = Nc1ncc(-c2cc(OCc3cccc(F)c3)nc3c2CCC3)cn1 [Example 263]
2 = N#Cc1ncc(-c2cc(OCc3ncc(F)cc3F)nc3c2CCC3)cn1 [Example 44]
3 = Fc1cccc(COc2cc(-c3cncnc3)c3c(n2)CCC3)n1 [Example 24]
4 = OCc1ncc(-c2cc(OCc3ccccn3)nc3c2CCCC3)s1 [Example 226, hydrochloride]
5 = N#Cc1ncccc1-c1cc(OCc2ccccn2)nc2c1CCC2 [Example 3]
Lookup: Thanks in advance: please rank these 5 entries by IC50, highest to lowest. Returns: the labels arranged in the requested order.
Found: 2, 1, 4, 3, 5
(2: 166 nM, 1: 111 nM, 4: 52.1 nM, 3: 36 nM, 5: 12 nM)

a = Fc1cnccc1COc1cc(-c2cncnc2)c2c(n1)CCC2 [Example 32]
b = c1ccc(COc2cc(-c3cccnc3)c3c(n2)CCC3)nc1 [Example 1, dihydrochloride]
Lookup: Given the listed items, does a or b have the lesser reported IC50? Field: selected label. Fill in the label of the entry you choose.
Found: a

a = Cc1cc(COc2cc(-c3cncnc3)c3c(n2)CCC3)ccn1 [Example 256]
b = Fc1ccc(COc2cc(-c3cncnc3)c3c(n2)CCCC3)cc1 [Example 280]
c = Nc1cccc(COc2cc(-c3cncnc3)c3c(n2)CCCC3)n1 [Example 157]
Lookup: Sort ascending by IC50. Returns: the labels arranged in the requested order.
Found: a, b, c

A = Cc1ncc(-c2cc(OCc3nc(C#N)co3)nc3c2CCC3)cn1 [Example 267]
B = N#Cc1ccc(COc2cc(-c3cncnc3)c3c(n2)CCCC3)cc1 [Example 278]
C = Cc1cncc(-c2cc(OCc3ncccc3F)nc3c2CCCC3)n1 [Example 214]
Lookup: Thanks in advance: please rank these 3 entries by IC50, highest to lowest. Returns: the labels arranged in the requested order.
Found: C, B, A
(C: 131 nM, B: 87 nM, A: 55 nM)

---

- Study target: human mGluR5 (Homo sapiens, UniProt P41594)
- Measurement description: Experiment for receptor function of mGluR5 (Ca2+-dependent fluorescence, FLIPR, CHO-K1 cells stably expressing human mGluR5)
- Reported conditions: L-glutamic acid 10 μM, Fluo-4 fluorescence
Counter-ions that a name gives are not always drawn.
Readout kind: IC50 (nM)

[
  {
    "Compound": "Cc1cncc(-c2cc(OCc3ccccn3)nc3c2CCCC3)n1 [Example 201]",
    "Study target": "human mGluR5 (Homo sapiens, UniProt P41594)",
    "IC50 [nM]": 36.2
  },
  {
    "Compound": "CNc1cncc(-c2cc(OCc3ccccn3)nc3c2CCCC3)n1 [Example 208, hydrochloride]",
    "Study target": "human mGluR5 (Homo sapiens, UniProt P41594)",
    "IC50 [nM]": 125
  },
  {
    "Compound": "CC(C)(O)c1cncc(-c2cc(OCc3ccccn3)nc3c2CCC3)n1 [Example 55]",
    "Study target": "human mGluR5 (Homo sapiens, UniProt P41594)",
    "IC50 [nM]": 348
  },
  {
    "Compound": "Clc1ccc(COc2cc(-c3cncnc3)c3c(n2)CCC3)s1 [Example 35]",
    "Study target": "human mGluR5 (Homo sapiens, UniProt P41594)",
    "IC50 [nM]": 58
  },
  {
    "Compound": "N#Cc1cccc(COc2cc(-c3cncnc3)c3c(n2)CCC3)c1 [Example 23]",
    "Study target": "human mGluR5 (Homo sapiens, UniProt P41594)",
    "IC50 [nM]": 39
  },
  {
    "Compound": "N#Cc1ccc(COc2cc(-c3cncnc3)c3c(n2)CCC3)cc1 [Example 258]",
    "Study target": "human mGluR5 (Homo sapiens, UniProt P41594)",
    "IC50 [nM]": 10.1
  }
]

1 = Cc1nc(COc2cc(-c3cccnc3)c3c(n2)CCCC3)cs1 [Example 96]
2 = Clc1cnc(-c2cc(OCc3ccccn3)nc3c2CCCC3)cn1 [Example 196, hydrochloride]
3 = c1csc(COc2cc(-c3cncnc3)c3c(n2)CCC3)c1 [Example 34]
Lookup: Sort ascending by IC50. Returns: the labels arranged in the requested order.
Found: 3, 1, 2
(3: 15 nM, 1: 56.3 nM, 2: 170 nM)

The reported measurements were obtained from patent US20150225404A1.
